# Assay Protocol: 28-day once weekly oral repeated-dose DRF study in cynomolgus monkeys (mesylate salt)
# Type: in vivo
# Test Parameters: female, cynomolgus monkey, blood, po, 45 mg/kg, F, Day 1
Observable: Cmax
Remember to follow the number with its unit.

Tell us which Cmax value is on record for CC(C)C[C@@H]1NCCN([C@@H](CC(C)C)C(=O)N2CCC3(C[C@@H]2C)OCC(CN2CCCC2)CO3)C1=O (stereo partly shown)
1460 ng/mL

---

# Assay Protocol: 28-day once weekly oral repeated-dose DRF study in cynomolgus monkeys (mesylate salt)
# Assay type: in vivo
# Test Parameters: female, cynomolgus monkey, blood, po, 45 mg/kg, F, Day 1
Observable: Tmax
Remember to follow the number with its unit.

Tell us which Tmax value is on record for CC(C)C[C@@H]1NCCN([C@@H](CC(C)C)C(=O)N2CCC3(C[C@@H]2C)OCC(CN2CCCC2)CO3)C1=O (stereo partly shown)
1.5 h

---

# Assay Protocol: 14-day daily oral repeated-dose exploratory study in CD-1 mice (mesylate salt)
# Type: in vivo
# Test Parameters: female, CD-1, mouse, in vivo, po, 1 mg/kg, F, Day 14
Observable: AUC(0-t) (ng·h/mL)
State just the number; it will be interpreted in ng·h/mL.

Tell us which AUC(0-t) value is on record for CC(C)C[C@@H]1NCCN([C@@H](CC(C)C)C(=O)N2CCC3(C[C@@H]2C)OCC(CN2CCCC2)CO3)C1=O (stereo partly shown) [Compound 1]
112

---

# Assay Protocol: Single dose oral gavage or intravenous PK in female cynomolgus monkeys, plasma
# Assay type: in vivo
# Test Parameters: female, cynomolgus monkey, plasma; IV 0.6 mg/kg
Observable: AUC(0-t)

Tell us which AUC(0-t) value is on record for CC(C)C[C@@H]1NCCN([C@@H](CC(C)C)C(=O)N2CCC3(C[C@@H]2C)OCC(CN2CCCC2)CO3)C1=O (stereo partly shown)
240 ng·h/mL

---

# Assay Protocol: Single dose intravenous and oral PK in Beagle dogs (citrate salt)
# Format: in vivo
# Test Parameters: both sexes, beagle, dog, whole blood; po 3 mg/kg
Observable: Tmax (min)
State just the number; it will be interpreted in min.

Tell us which Tmax value is on record for CC(C)C[C@@H]1NCCN([C@@H](CC(C)C)C(=O)N2CCC3(C[C@@H]2C)OCC(CN2CCCC2)CO3)C1=O (stereo partly shown)
15

---

# Assay Protocol: 14-day daily oral repeated-dose DRF study in cynomolgus monkeys (mesylate salt)
# Type: in vivo
# Test Parameters: cynomolgus monkey, plasma, po, 4 mg/kg, 4 mg/kg (Gr. 1), Day 1
Observable: AUC(0-t) (ng·h/mL)
State just the number; it will be interpreted in ng·h/mL.

Tell us which AUC(0-t) value is on record for CC(C)C[C@@H]1NCCN([C@@H](CC(C)C)C(=O)N2CCC3(C[C@@H]2C)OCC(CN2CCCC2)CO3)C1=O (stereo partly shown)
10.5

---

# Assay Protocol: Single dose oral gavage or intravenous PK in female cynomolgus monkeys, plasma
# Format: in vivo
# Test Parameters: female, cynomolgus monkey, plasma; Day 22 (IV 0.6 mg/kg); read-out: cleared (Cl), mean rate (converted)
Observable: clearance (mL/min/kg)
State just the number; it will be interpreted in mL/min/kg.

Tell us which clearance value is on record for CC(C)C[C@@H]1NCCN([C@@H](CC(C)C)C(=O)N2CCC3(C[C@@H]2C)OCC(CN2CCCC2)CO3)C1=O (stereo partly shown) [Compound 1]
41

---

# Assay Protocol: 14-day daily oral repeated-dose DRF study in Beagle dogs (citrate salt)
# Type: in vivo
# Test Parameters: both sexes, Beagle, dog, plasma, po, 12 mg/kg/day, Day 1; read-out: mean Cmax plasma levels
Observable: Cmax (µg/mL)
State just the number; it will be interpreted in µg/mL.

Tell us which Cmax value is on record for CC(C)C[C@@H]1NCCN([C@@H](CC(C)C)C(=O)N2CCC3(C[C@@H]2C)OCC(CN2CCCC2)CO3)C1=O (stereo partly shown) [Compound 1]
0.182

---

# Assay Protocol: 28-day once weekly oral repeated-dose DRF study in CD-1 mice (mesylate salt), plasma
# Format: in vivo
# Test Parameters: male, CD-1, mouse, plasma, po, 300 mg/kg, 300 mg/kg/week, 2nd dose
Observable: Tmax (h)
State just the number; it will be interpreted in h.

Tell us which Tmax value is on record for CC(C)C[C@@H]1NCCN([C@@H](CC(C)C)C(=O)N2CCC3(C[C@@H]2C)OCC(CN2CCCC2)CO3)C1=O (stereo partly shown) [Compound 1]
1

---

# Assay Protocol: 28-day once weekly oral repeated-dose DRF TK study in Beagle dogs (mesylate salt), plasma
# Type: in vivo
# Test Parameters: both sexes, Beagle, dog, plasma, po, 15 mg/kg, 15 mg/kg weekly, Day 8
Observable: AUC (ng·h/mL)
State just the number; it will be interpreted in ng·h/mL.

Tell us which AUC value is on record for CC(C)C[C@@H]1NCCN([C@@H](CC(C)C)C(=O)N2CCC3(C[C@@H]2C)OCC(CN2CCCC2)CO3)C1=O (stereo partly shown)
2300

---

# Assay Protocol: 14-day daily oral repeated-dose exploratory study in CD-1 mice (mesylate salt)
# Type: in vivo
# Test Parameters: female, CD-1, mouse, in vivo, po, 15 mg/kg, F, Day 14
Observable: AUC(0-t) (ng·h/mL)
State just the number; it will be interpreted in ng·h/mL.

Tell us which AUC(0-t) value is on record for CC(C)C[C@@H]1NCCN([C@@H](CC(C)C)C(=O)N2CCC3(C[C@@H]2C)OCC(CN2CCCC2)CO3)C1=O (stereo partly shown)
1090

---

# Assay Protocol: Single dose oral and intravenous PK in CD-1 mice (mesylate salt), blood
# Format: in vivo
# Test Parameters: male, CD-1, mouse, whole blood; oral 10 mg/kg
Observable: half-life (h)
State just the number; it will be interpreted in h.

Tell us which half-life value is on record for CC(C)C[C@@H]1NCCN([C@@H](CC(C)C)C(=O)N2CCC3(C[C@@H]2C)OCC(CN2CCCC2)CO3)C1=O (stereo partly shown)
5.6

---

# Assay Protocol: 28-day once weekly oral repeated-dose DRF study in cynomolgus monkeys (mesylate salt)
# Assay type: in vivo
# Test Parameters: female, cynomolgus monkey, blood, po, 45 mg/kg, F, Day 22; read-out: AUC0-Tlast
Observable: AUC(0-t) (ng·h/mL)
State just the number; it will be interpreted in ng·h/mL.

Tell us which AUC(0-t) value is on record for CC(C)C[C@@H]1NCCN([C@@H](CC(C)C)C(=O)N2CCC3(C[C@@H]2C)OCC(CN2CCCC2)CO3)C1=O (stereo partly shown)
4810

---

# Assay Protocol: 28-day once weekly oral repeated-dose DRF study in cynomolgus monkeys (mesylate salt)
# Assay type: in vivo
# Test Parameters: male, cynomolgus monkey, whole blood, po, 45 mg/kg, M, Day 22
Observable: Cmax (ng/mL)
State just the number; it will be interpreted in ng/mL.

Tell us which Cmax value is on record for CC(C)C[C@@H]1NCCN([C@@H](CC(C)C)C(=O)N2CCC3(C[C@@H]2C)OCC(CN2CCCC2)CO3)C1=O (stereo partly shown) [Compound 1]
1350

---

# Assay Protocol: 28-day once weekly oral repeated-dose DRF study in cynomolgus monkeys (mesylate salt)
# Type: in vivo
# Test Parameters: female, cynomolgus monkey, blood, po, 60 mg/kg, F, Day 1; read-out: AUC0-Tlast
Observable: AUC(0-t)

Tell us which AUC(0-t) value is on record for CC(C)C[C@@H]1NCCN([C@@H](CC(C)C)C(=O)N2CCC3(C[C@@H]2C)OCC(CN2CCCC2)CO3)C1=O (stereo partly shown)
7440 ng·h/mL

---

# Assay Protocol: Single dose oral gavage or intravenous PK in female cynomolgus monkeys, plasma
# Assay type: in vivo
# Test Parameters: female, cynomolgus monkey, plasma; po 12 mg/kg
# Procedure: The objective of the study was to determine the PK profile of Compound 1 following a single oral gavage or intravenous injection administration on 5 different occasions to female cynomolgus monkeys. Compound 1, was administered as consecutive single doses on 5 occasions, separated by a washout period, by either oral gavage (4 and 12 mg/kg, Days 1 and 8) or by slow bolus intravenous (IV) injection (0.2 and 0.6 mg/kg, Days 15 and 22) to a group of female monkeys. […]
Observable: Cmax (ng/mL)
State just the number; it will be interpreted in ng/mL.

Tell us which Cmax value is on record for CC(C)C[C@@H]1NCCN([C@@H](CC(C)C)C(=O)N2CCC3(C[C@@H]2C)OCC(CN2CCCC2)CO3)C1=O (stereo partly shown)
53.6

---

# Assay Protocol: Single dose oral gavage or intravenous PK in female cynomolgus monkeys, plasma
# Assay type: in vivo
# Test Parameters: female, cynomolgus monkey, plasma; po 4 mg/kg
Observable: Tmax (min)
State just the number; it will be interpreted in min.

Tell us which Tmax value is on record for CC(C)C[C@@H]1NCCN([C@@H](CC(C)C)C(=O)N2CCC3(C[C@@H]2C)OCC(CN2CCCC2)CO3)C1=O (stereo partly shown) [Compound 1]
30
